Target: T1, exon 6 peptide (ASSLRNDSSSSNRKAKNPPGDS), coated on ELISA plate (not fully specified)
T1 construct: No biotin is mentioned for the ELISA coat; also called a peptide of SCF248
T1 peptide: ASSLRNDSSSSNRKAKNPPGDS
Experiment: direct ELISA on coated peptide, IgG4, read at 450 nm
Overview of reported absorbance at 100 ng/mL antibody across a group of binders:
Enter your answer as a number in absorbance; do not include the unit.

Known absorbance at 100 ng/mL antibody results, listed for orientation:
binder: B124P mutant expressed as full length IgG4 antibody (antibody, V domains shown, Full length IgG4) VH: QVQLVQSGAELKKPGSSVKISCKSSGYAFSSNWMNWVKQRPGQGLEWIGQIYPEDGDTHYNDKFKGKATLTADKSTSTAYMELSSLTSEDSAVYFCSSSNWVGSYWGQGTLVTVSS VL: DVVMTQSPLSLPVTLGQPASISCKSSQSLLEQDGNTYLNWLQQRPGQSPRRLIYLVDRLDSGVPDRFSGSGSGTDFTLKISRVEAEDVGVYYCWQGTDLPQTFGGGTKVEIK
absorbance at 100 ng/mL antibody (absorbance): 2.4
//
binder: D14P mutant expressed as full length IgG4 antibody (antibody, V domains shown, Full length IgG4) VH: QVQLVQSGAELKKPGSSVKISCKSSGYAFSSQWMNWVKQRPGQGLEWIGQIYPGDDDTHYNDKFKGKATLTADKSTSTAYMELSSLTSEDSAVYFCSSSNWVGSYWGQGTLVTVSS VL: DVVMTQSPLSLPVTLGQPASISCKSSQSLLESDGNTYLNWLQQRPGQSPRRLIYLVDRLDLGVPDRFSGSGSGTDFTLKISRVEAEDVGVYYCWQGTDLPQTFGGGTKVEIK
absorbance at 100 ng/mL antibody (absorbance): 2.53
//
binder: H83P mutant expressed as full length IgG4 antibody (antibody, V domains shown, Full length IgG4) VH: QVQLVQSGAELKKPGSSVKISCKSSGYAFSSQWMNWVKQRPGQGLEWIGQIYPGDGDIHYNDKFKGKATLTADKSTSTAYMELSSLTSEDSAVYFCSSSNWVGSYWGQGTLVTVSS VL: DVVMTQSPLSLPVTLGQPASISCKSSQSLLESDGNTYLNWLQQRPGQSPRRLIYLVDRLDSGVPDRFSGSGSGTDFTLKISRVEAEDVGVYYCWQGTDLPQTFGGGTKVEIK
absorbance at 100 ng/mL antibody (absorbance): 1.81
//
binder: D44P mutant expressed as full length IgG4 antibody (antibody, V domains shown, Full length IgG4) VH: QVQLVQSGAELKKPGSSVKISCKSSGYAFSSQWMNWVKQRPGQGLEWIGQIYPEDGDIHYNGKFKGKATLTADKSTSTAYMELSSLTSEDSAVYFCSSSNWVGSYWGQGTLVTVSS VL: DVVMTQSPLSLPVTLGQPASISCKSSQSLLEEDGNTYLNWLQQRPGQSPRRLIYLVDRLDSGVPDRFSGSGSGTDFTLKISRVEAEDVGVYYCWQGSHLPQTFGGGTKVEIK
absorbance at 100 ng/mL antibody (absorbance): 2.16
//
binder: A64P mutant expressed as full length IgG4 antibody (antibody, V domains shown, Full length IgG4) VH: QVQLVQSGAELKKPGSSVKISCKSSGYAFSSNWMNWVKQRPGQGLEWIGQIYPEDGDTHYNGKFKGKATLTADKSTSTAYMELSSLTSEDSAVYFCSSSNWVGSYWGQGTLVTVSS VL: DVVMTQSPLSLPVTLGQPASISCKSSQSLLEEDGNTYLNWLQQRPGQSPRRLIYLVNRLDDGVPDRFSGSGSGTDFTLKISRVEAEDVGVYYCWQGTDLPQTFGGGTKVEIK
absorbance at 100 ng/mL antibody (absorbance): 2.71
//
binder: H74P mutant expressed as full length IgG4 antibody (antibody, V domains shown, Full length IgG4) VH: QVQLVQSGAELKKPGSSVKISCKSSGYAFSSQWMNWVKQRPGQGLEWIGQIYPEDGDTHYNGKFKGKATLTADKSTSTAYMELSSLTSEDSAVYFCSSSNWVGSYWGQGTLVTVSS VL: DVVMTQSPLSLPVTLGQPASISCKSSQSLLEEDGNTYLNWLQQRPGQSPRRLIYLVDRLDLGVPDRFSGSGSGTDFTLKISRVEAEDVGVYYCWQGSHLPQTFGGGTKVEIK
absorbance at 100 ng/mL antibody (absorbance): 2.56

Task: Field request: absorbance at 100 ng/mL antibody | item: A84P mutant expressed as full length IgG4 antibody (antibody, V domains shown, Full length IgG4) VH: QVQLVQSGAELKKPGSSVKISCKSSGYAFSSQWMNWVKQRPGQGLEWIGQIYPEDGDTHMNGKFKGKATLTADKSTSTAYMELSSLTSEDSAVYFCSSSNWVGSYWGQGTLVTVSS VL: DVVMTQSPLSLPVTLGQPASISCKSSQSLLEEDGNTYLNWLQQRPGQSPRRLIYLVDRLDIGVPDRFSGSGSGTDFTLKISRVEAEDVGVYYCWQGTDLPQTFGGGTKVEIK
Output: 2.67

Task: Field request: absorbance at 100 ng/mL antibody | item: A104P mutant expressed as full length IgG4 antibody (antibody, V domains shown, Full length IgG4) VH: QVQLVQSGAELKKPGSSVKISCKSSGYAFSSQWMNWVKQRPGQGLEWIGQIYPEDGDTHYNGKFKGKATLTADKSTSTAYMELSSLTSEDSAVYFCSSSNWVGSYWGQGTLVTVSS VL: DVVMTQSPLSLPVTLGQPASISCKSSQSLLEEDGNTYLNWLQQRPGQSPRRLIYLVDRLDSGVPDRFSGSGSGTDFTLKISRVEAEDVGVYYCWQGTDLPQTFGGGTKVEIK
Output: 2.6

Task: Field request: absorbance at 100 ng/mL antibody | item: B104P mutant expressed as full length IgG4 antibody (antibody, V domains shown, Full length IgG4) VH: QVQLVQSGAELKKPGSSVKISCKSSGYAFSSQWMNWVKQRPGQGLEWIGQIYPDDGDTHYNDKFKGKATLTADKSTSTAYMELSSLTSEDSAVYFCSSSNWVGSYWGQGTLVTVSS VL: DVVMTQSPLSLPVTLGQPASISCKSSQSLLEADGNTYLNWLQQRPGQSPRRLIYLVDRLDSGVPDRFSGSGSGTDFTLKISRVEAEDVGVYYCWQGTDLPQTFGGGTKVEIK
Output: 1.83

Task: Field request: absorbance at 100 ng/mL antibody | item: B114P mutant expressed as full length IgG4 antibody (antibody, V domains shown, Full length IgG4) VH: QVQLVQSGAELKKPGSSVKISCKSSGYAFSSQWMNWVKQRPGQGLEWIGQIYPEDGDTHMNGKFKGKATLTADKSTSTAYMELSSLTSEDSAVYFCSSSNWDGSYWGQGTLVTVSS VL: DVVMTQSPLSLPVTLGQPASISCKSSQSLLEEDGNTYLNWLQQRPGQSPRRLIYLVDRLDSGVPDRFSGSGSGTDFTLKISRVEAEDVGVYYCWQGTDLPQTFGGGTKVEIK
Output: 2.43

Task: Field request: absorbance at 100 ng/mL antibody | item: F54P mutant expressed as full length IgG4 antibody (antibody, V domains shown, Full length IgG4) VH: QVQLVQSGAELKKPGSSVKISCKSSGYAFSSQWMNWVKQRPGQGLEWIGQIYPEDGDTHMNGKFKTKATLTADKSTSTAYMELSSLTSEDSAVYFCSSSNWVGSYWGQGTLVTVSS VL: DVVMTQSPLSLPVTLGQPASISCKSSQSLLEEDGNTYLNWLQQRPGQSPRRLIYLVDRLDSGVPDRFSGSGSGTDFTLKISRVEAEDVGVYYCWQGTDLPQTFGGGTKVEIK
Output: 1.57

Recorded values, source patent US20240182556A1.
